Assay: in vitro
Details: African green monkey
measurementLabel: CC50 (µg/mL)

compound	measurementLabel	valueUnit	boundOperator	endpointResult
C[C@@H]1O[C@@H](O[C@@H]2[C@@H](O)[C@H](OCCc3ccc(O)c(O)c3)O[C@H](CO)[C@H]2OC(=O)/C=C/c2ccc(O)c(O)c2)[C@H](O)[C@H](O)[C@H]1O [AP 1, verbascoside]	CC50	µg/mL	>	200
C[C@H]1[C@H](C)CC[C@]2(C(=O)O)CC[C@]3(C)C(=CC[C@@H]4[C@@]5(C)CC[C@H](O)C(C)(C)[C@@H]5CC[C@]43C)[C@H]12	CC50	µg/mL	=	8.1
